The entries below come with measured % R (resistance) values attached.
Test system: E. coli ESBL−
Assay: In vitro MIC, 2010 surveillance isolates
Assay type: cell-based, Escherichia coli
Conditions: N America; CLSI breakpoints

compound	study_system	% R (resistance) (%)
C[C@H]1COc2c(N3CCN(C)CC3)c(F)cc3c(=O)c(C(=O)O)cn1c23	E. coli ESBL−	21.9
NCC[C@H](O)C(=O)N[C@@H]1C[C@H](N)[C@@H](O[C@H]2O[C@H](CN)[C@@H](O)[C@H](O)[C@H]2O)[C@H](O)[C@H]1O[C@H]1O[C@H](CO)[C@@H](O)[C@H](N)[C@H]1O	E. coli ESBL−	0
CO/N=C(\C(=O)N[C@@H]1C(=O)N2C(C(=O)[O-])=C(C[N+]3(C)CCCC3)CS[C@H]12)c1csc(N)n1 [Cefepime]	E. coli ESBL−	0

---

Assay: Pharmacokinetics of Compound 1 in mouse plasma versus kidney
Format: in vivo
Conditions: plasma, sc, Subcutaneous, 4.0 mg/kg
parameter: AUC(0-inf)

> print(dat)
                            compound.string        result
1  CN(C)c1cc(CNCC(C)(C)C)c(O)c2c1C[C@H]1C[C@H]3[C@H](N(C)C)C(O)=C(C(N)=O)C(=O)[C@@]3(O)C(O)=C1C2=O  2820 ng·h/mL

---

Experiment: Phase 1b study in female adults with cystitis, plasma PK
Type: in vivo, human
Details: female, human, plasma, oral, 300 mg, plasma, Day 1, PO300; read-out: AUC(0-12 hrs), Median
parameter: AUC(0-t) (ng·h/mL)

> print(dat)
                                   compound  parameter  readout.number
1  CN(C)c1cc(CNCC(C)(C)C)c(O)c2c1C[C@H]1C[C@H]3[C@H](N(C)C)C(O)=C(C(N)=O)C(=O)[C@@]3(O)C(O)=C1C2=O [Compound 1]   AUC(0-t)            6520

---

System: E. faecalis VS
Test: In vitro MIC, 2010 surveillance isolates
Format: cell-based
Settings: L. Amer; N=290
The entries below come with measured MIC90 values attached.

compound_string	value_operator	MIC90 (µg/mL)
CN(C)c1cc(NC(=O)CNC(C)(C)C)c(O)c2c1C[C@H]1C[C@H]3[C@H](N(C)C)C(O)=C(C(N)=O)C(=O)[C@@]3(O)C(O)=C1C2=O	=	0.25
CN(C)c1cc(CNCC(C)(C)C)c(O)c2c1C[C@H]1C[C@H]3[C@H](N(C)C)C(O)=C(C(N)=O)C(=O)[C@@]3(O)C(O)=C1C2=O	=	0.25
CN[C@H](CC(C)C)C(=O)N[C@H]1C(=O)N[C@@H](CC(N)=O)C(=O)N[C@H]2C(=O)N[C@H]3C(=O)N[C@H](C(=O)N[C@H](C(=O)O)c4cc(O)cc(O)c4-c4cc3ccc4O)[C@H](O)c3ccc(c(Cl)c3)Oc3cc2cc(c3O[C@@H]2O[C@H](CO)[C@@H](O)[C@H](O)[C@H]2O[C@H]2C[C@](C)(N)[C@H](O)[C@H](C)O2)Oc2ccc(cc2Cl)[C@H]1O	=	2
C[C@H]1COc2c(N3CCN(C)CC3)c(F)cc3c(=O)c(C(=O)O)cn1c23	>	4
C[C@H]1c2cccc(O)c2C(=O)C2=C(O)[C@]3(O)C(=O)C(C(N)=O)=C(O)[C@@H](N(C)C)[C@@H]3[C@@H](O)[C@@H]21	=	8
CO/N=C(\C(=O)N[C@@H]1C(=O)N2C(C(=O)O)=C(CSc3nc(=O)c(=O)[nH]n3C)CS[C@H]12)c1csc(N)n1	>	8

FYI, the data here is from patent US10238670B2.
